target: CaCYP51 Y132H + K143R (Candida albicans, UniProt P10613, K143R/Y132H); assay: Reconstituted CYP51 activity assay, Y132H + K143R; assay type: biochemical, C. albicans; conditions: 1 μM CaCyp51, 50 μM lanosterol; duplicate, mean ± SD
Sequence (P10613 whole entry Y132H/K143R): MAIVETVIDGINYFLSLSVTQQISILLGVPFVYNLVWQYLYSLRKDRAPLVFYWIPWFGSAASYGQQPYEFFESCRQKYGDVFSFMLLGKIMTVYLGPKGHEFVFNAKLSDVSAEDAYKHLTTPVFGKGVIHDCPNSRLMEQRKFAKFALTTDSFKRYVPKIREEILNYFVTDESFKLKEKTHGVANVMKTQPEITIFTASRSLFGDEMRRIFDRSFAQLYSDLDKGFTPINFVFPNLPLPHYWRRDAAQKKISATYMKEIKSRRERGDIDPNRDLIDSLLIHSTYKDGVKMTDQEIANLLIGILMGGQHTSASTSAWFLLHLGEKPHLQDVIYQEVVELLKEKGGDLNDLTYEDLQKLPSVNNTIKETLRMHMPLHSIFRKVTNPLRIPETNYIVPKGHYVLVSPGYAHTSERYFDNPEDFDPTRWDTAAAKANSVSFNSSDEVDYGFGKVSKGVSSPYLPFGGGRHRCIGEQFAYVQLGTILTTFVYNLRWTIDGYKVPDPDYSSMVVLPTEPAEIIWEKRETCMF
quantityName: IC50 (µM)
All answers are understood in µM, so give the number only.

compound: OC(Cn1cncn1)(Cn1cncn1)c1ccc(F)cc1F [FLC, fluconazole, reference compound]
valueUnit: µM
IC50: 25.7

Now look at this one.
# get_value(readout='IC50', item= O=C(NCC(O)(Cn1cncn1)c1ccc(F)cc1F)c1ccc(-c2ccc(OC(F)(F)F)cc2)cc1 (centres unmarked) )
8.49

---

target: CaCYP51 Y132F (Candida albicans, UniProt P10613, Y132F); assay: Reconstituted CYP51 activity assay, Y132F; assay type: biochemical, C. albicans; settings: 1 μM CaCyp51, 50 μM lanosterol; duplicate, mean ± SD
Sequence (P10613 whole entry Y132F): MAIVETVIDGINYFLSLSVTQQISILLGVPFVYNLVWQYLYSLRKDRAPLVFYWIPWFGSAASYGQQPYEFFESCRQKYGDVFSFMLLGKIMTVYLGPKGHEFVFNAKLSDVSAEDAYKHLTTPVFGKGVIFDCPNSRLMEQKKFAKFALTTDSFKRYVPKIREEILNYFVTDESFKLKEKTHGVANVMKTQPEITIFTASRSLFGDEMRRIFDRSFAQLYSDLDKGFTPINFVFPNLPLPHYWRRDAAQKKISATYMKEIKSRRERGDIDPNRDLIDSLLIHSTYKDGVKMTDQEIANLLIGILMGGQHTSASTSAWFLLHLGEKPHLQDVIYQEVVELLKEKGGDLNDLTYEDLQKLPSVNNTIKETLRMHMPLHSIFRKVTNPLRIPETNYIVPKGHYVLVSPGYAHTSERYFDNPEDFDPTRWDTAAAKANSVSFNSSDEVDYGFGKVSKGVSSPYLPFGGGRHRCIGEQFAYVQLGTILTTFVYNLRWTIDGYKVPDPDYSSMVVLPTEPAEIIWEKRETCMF
quantityName: IC50 (µM)
All answers are understood in µM, so give the number only.

# get_value(readout='IC50', item= O=C(NCC(O)(Cn1cncn1)c1ccc(F)cc1F)c1ccc(-c2ccc(OC(F)(F)F)cc2)cc1 (stereo not shown) [Compound 22] )
1.24
